Listing: % inhibition of selected molecules
# System: HEK293T
# experiment description: Cytotoxicity assay (xCELLigence impedance)
# Format: cell-based, human
# assay conditions: c 50 µg/mL, 24 h exposure
Residues, ends and D or L forms follow the SMILES beside them. *: point of attachment. Lithocholoyl = C[C@H](CCC(=O)*)[C@H]1CC[C@H]2[C@@H]3CC[C@@H]4C[C@H](O)CC[C@]4(C)[C@H]3CC[C@]12C; Palmitoyl = CCCCCCCCCCCCCCCC(=O)*
observation type: % inhibition (%)

[[record]]
molecule = "CC(C)C[C@H](NC(=O)CC[C@@H](C)[C@H]1CC[C@H]2[C@@H]3CC[C@@H]4C[C@H](O)CC[C@]4(C)[C@H]3CC[C@]12C)C(=O)N[C@H](C(=O)N[C@@H](CCCCN)C(=O)NCC(=O)N[C@@H](C)C(=O)N[C@@H](CCCNC(=N)N)C(N)=O)C(C)C [SHP-2.3, LCA-LVKGAR-NH2] (Lithocholoyl-LVKGAR-NH2)"
scale_unit = "%"
measured_number = 25.6

[[record]]
molecule = "CCCCCCCCCCCCCCCC(=O)NCC(=O)N[C@H](C(=O)N[C@@H](CC(C)C)C(=O)N[C@@H](CCCCN)C(=O)N[C@@H](CCCNC(=N)N)C(=O)N[C@@H](C)C(N)=O)C(C)C [SHP-3.2, PAL-GVLKRA-NH2] (Palmitoyl-GVLKRA-NH2)"
scale_unit = "%"
measured_number = 4.1

[[record]]
molecule = "CCCCCCCCCCCCCCCC(=O)N[C@@H](CC(C)C)C(=O)N[C@H](C(=O)N[C@@H](CCCCN)C(=O)NCC(=O)N[C@@H](C)C(=O)N[C@@H](CCCNC(=N)N)C(N)=O)C(C)C [SHP-2.2, PAL-LVKGAR-NH2] (Palmitoyl-LVKGAR-NH2)"
scale_unit = "%"
measured_number = 11.1

[[record]]
molecule = "CC(C)C[C@H](NC(=O)CC[C@@H](C)[C@H]1CC[C@H]2[C@@H]3CC[C@@H]4C[C@H](O)CC[C@]4(C)[C@H]3CC[C@]12C)C(=O)N[C@H](C(=O)N[C@@H](CCCCN)C(=O)N[C@@H](CCCNC(=N)N)C(=O)N[C@@H](C)C(=O)NCC(N)=O)C(C)C [SHP-1.3, LCA-LVKRAG-NH2] (Lithocholoyl-LVKRAG-NH2)"
scale_unit = "%"
measured_number = 63.8

[[record]]
molecule = "CC(C)C[C@H](NC(=O)[C@@H](NC(=O)CNC(=O)CC[C@@H](C)[C@H]1CC[C@H]2[C@@H]3CC[C@@H]4C[C@H](O)CC[C@]4(C)[C@H]3CC[C@]12C)C(C)C)C(=O)N[C@@H](CCCCN)C(=O)N[C@@H](CCCNC(=N)N)C(=O)N[C@@H](C)C(N)=O [SHP-3.3, LCA-GVLKRA-NH2] (Lithocholoyl-GVLKRA-NH2)"
scale_unit = "%"
measured_number = 7.8

[[record]]
molecule = "CCCCCCCCCCCCCCCC(=O)N[C@@H](CC(C)C)C(=O)N[C@H](C(=O)N[C@@H](CCCCN)C(=O)N[C@@H](CCCNC(=N)N)C(=O)N[C@@H](C)C(=O)NCC(N)=O)C(C)C [SHP-1.2, PAL-LVKRAG-NH2] (Palmitoyl-LVKRAG-NH2)"
scale_unit = "%"
measured_number = 37.6

